Reported pIC50 is given for each of the following compounds.
- TESTED_SYSTEM: Y641N EZH2 (Homo sapiens, UniProt Q15910, Y641N)
- Sequence (Q15910 whole entry Y641N): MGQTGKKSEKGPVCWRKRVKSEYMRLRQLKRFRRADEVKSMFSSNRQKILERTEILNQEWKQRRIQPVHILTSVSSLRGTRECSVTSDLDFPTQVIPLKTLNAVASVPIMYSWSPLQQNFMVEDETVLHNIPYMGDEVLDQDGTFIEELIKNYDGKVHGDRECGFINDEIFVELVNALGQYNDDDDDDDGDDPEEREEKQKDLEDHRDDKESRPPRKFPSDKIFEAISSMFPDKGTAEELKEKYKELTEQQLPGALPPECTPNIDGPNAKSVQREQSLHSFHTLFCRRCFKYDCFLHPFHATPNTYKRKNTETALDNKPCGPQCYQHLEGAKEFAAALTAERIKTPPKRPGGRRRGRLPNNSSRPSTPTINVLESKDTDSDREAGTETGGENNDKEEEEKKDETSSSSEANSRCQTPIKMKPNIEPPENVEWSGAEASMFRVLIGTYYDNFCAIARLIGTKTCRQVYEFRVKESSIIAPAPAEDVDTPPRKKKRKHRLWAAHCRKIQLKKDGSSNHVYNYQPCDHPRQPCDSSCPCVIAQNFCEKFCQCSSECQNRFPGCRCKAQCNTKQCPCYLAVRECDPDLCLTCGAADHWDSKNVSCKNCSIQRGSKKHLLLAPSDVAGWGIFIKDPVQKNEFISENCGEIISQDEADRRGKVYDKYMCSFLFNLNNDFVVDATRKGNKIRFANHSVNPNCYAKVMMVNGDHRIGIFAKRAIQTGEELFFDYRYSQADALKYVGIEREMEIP
- Sequence (O75530 whole entry partner): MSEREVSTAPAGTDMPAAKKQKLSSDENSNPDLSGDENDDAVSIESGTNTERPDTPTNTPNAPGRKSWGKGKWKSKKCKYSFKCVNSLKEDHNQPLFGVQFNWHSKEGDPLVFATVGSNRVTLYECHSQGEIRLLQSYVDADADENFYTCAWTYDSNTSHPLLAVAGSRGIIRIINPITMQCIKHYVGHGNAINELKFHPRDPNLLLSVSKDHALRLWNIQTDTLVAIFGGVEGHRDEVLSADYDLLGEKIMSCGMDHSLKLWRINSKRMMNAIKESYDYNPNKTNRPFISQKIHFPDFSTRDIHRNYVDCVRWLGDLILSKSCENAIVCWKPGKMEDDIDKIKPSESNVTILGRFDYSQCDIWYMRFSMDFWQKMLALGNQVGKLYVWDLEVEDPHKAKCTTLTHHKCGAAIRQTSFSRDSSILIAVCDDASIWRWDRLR
- Sequence (Q15022 whole entry partner): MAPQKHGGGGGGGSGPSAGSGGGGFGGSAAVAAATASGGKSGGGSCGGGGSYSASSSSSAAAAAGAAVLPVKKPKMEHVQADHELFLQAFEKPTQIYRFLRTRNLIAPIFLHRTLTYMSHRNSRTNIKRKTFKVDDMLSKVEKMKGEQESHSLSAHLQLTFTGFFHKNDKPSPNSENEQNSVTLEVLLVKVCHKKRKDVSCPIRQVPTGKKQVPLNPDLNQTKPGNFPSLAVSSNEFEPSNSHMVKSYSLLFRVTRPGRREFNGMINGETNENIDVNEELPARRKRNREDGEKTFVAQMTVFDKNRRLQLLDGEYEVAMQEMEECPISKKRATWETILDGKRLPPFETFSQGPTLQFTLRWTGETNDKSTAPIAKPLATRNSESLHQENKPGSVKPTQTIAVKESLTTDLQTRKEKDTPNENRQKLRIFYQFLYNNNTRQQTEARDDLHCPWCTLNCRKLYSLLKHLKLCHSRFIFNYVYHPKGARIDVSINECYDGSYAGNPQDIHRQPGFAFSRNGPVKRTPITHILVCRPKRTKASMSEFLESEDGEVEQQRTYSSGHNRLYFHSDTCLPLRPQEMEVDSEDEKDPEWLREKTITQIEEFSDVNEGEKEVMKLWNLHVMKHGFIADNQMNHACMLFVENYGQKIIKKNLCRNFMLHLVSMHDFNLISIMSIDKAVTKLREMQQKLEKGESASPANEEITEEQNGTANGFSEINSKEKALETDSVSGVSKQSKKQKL
- ASSAY_PROTOCOL: Assay for Y641N EZH2 (as the EZH2 assay, H3K27Me2 oligonucleosomes as substrate)
- REPORTED_CONDITIONS: Y641N EZH2 mutant, reconstituted H3K27Me2 oligonucleosomes as substrate
pIC50: −log10 of the molar value.

Ask: Specify measured pIC50 for COc1cc(C)[nH]c(=O)c1CNC(=O)c1c(C)c(C(C)C2CCOCC2)n2ncccc12 (racemic) .
Result: > 7.00

Ask: Could you please provide reported pIC50 for COc1cc(C)[nH]c(=O)c1CNC(=O)c1c(C)c(C(C)N(C)C(C)=O)n2ncccc12 (racemic) ? Thanks!
Result: 6.00 to 7.00

Ask: Answer with the recorded pIC50 for the compound listed here: CCS(=O)(=O)N1CCC(C(C)c2c(C)c(C(=O)NCc3c(OC)cc(C)[nH]c3=O)n3ccncc23)CC1 (racemic)
Result: > 7.00

---

- TESTED_SYSTEM: Y641N EZH2 (Homo sapiens, UniProt Q15910, Y641N)
- ASSAY_PROTOCOL: Assay for Y641N EZH2 (as the EZH2 assay, H3K27Me2 oligonucleosomes as substrate)
- REPORTED_CONDITIONS: Y641N EZH2 mutant, reconstituted H3K27Me2 oligonucleosomes as substrate
pIC50: −log10 of the molar value.
pIC50 by entry:

Below: 3 molecules and their reported pIC50.
[[record]]
molecule = "COc1cc(C)[nH]c(=O)c1CNC(=O)c1c(C)c(C(C)C2CCN(CC(C)(C)F)CC2)n2ncccc12 (stereo not shown) [Compound 144]"
experimental_value = "6.00 to 7.00"

[[record]]
molecule = "Cc1cc(C)c(CNC(=O)c2c(C)c(C(C)C3CCN(C)CC3)n3ncccc23)c(=O)[nH]1 (racemic) [Compound 124]"
experimental_value = "6.00 to 7.00"

[[record]]
molecule = "COc1cc(C)[nH]c(=O)c1CNC(=O)c1c(C)c(C(C)C2CCN(CC(C)(F)F)CC2)n2ccncc12 (stereo not shown) [Compound 140]"
experimental_value = "5.00 to 6.00"


Ask: Return pIC50 (reported value) for this molecule: COc1cc(C)[nH]c(=O)c1CNC(=O)c1c(C)c(C(C)c2ccn(C)c(=O)c2)n2ncccc12 (stereo not shown) [Compound 110]
Result: 6.00 to 7.00

Ask: Give the measured pIC50 for COc1cc(C)[nH]c(=O)c1CNC(=O)c1c(C)c(C(C)C2CCN(C(=O)C(F)F)CC2)n2ncccc12 (stereo not shown) [Compound 138]
Result: 5.00 to 6.00

Ask: Input COc1cc(C)[nH]c(=O)c1CNC(=O)c1c(C)c(C(C)C2CCN(CC(F)(F)F)CC2)n2ncccc12 (stereo not shown) [Compound 133] , output reported pIC50.
Result: > 7.00

Ask: Supply recorded pIC50 for Cc1cc(C)c(CNC(=O)c2c(C)c(-c3c(C)noc3C)n3ncccc23)c(=O)[nH]1 [Compound 118] here.
Result: > 7.00

---

In this section we review reported pIC50 values for a set of compounds.
- TESTED_SYSTEM: Y641N EZH2 (Homo sapiens, UniProt Q15910, Y641N)
- ASSAY_PROTOCOL: Assay for Y641N EZH2 (as the EZH2 assay, H3K27Me2 oligonucleosomes as substrate)
- REPORTED_CONDITIONS: Y641N EZH2 mutant, reconstituted H3K27Me2 oligonucleosomes as substrate
pIC50: −log10 of the molar value.

See these solved cases before continuing.
[[record]]
compound = "CCN(C(C)c1c(C)c(C(=O)NCc2c(OC)cc(C)[nH]c2=O)c2cccnn12)S(C)(=O)=O (single isomer, unassigned) [Compound 108]"
experimental_value = "6.00 to 7.00"

[[record]]
compound = "COc1cc(C)[nH]c(=O)c1CNC(=O)c1c(C)c(-c2ccnn2C)n2ncccc12"
experimental_value = "6.00 to 7.00"

[[record]]
compound = "CCN(C(C)c1c(C)c(C(=O)NCc2c(OC)cc(C)[nH]c2=O)c2cccnn12)S(C)(=O)=O (single isomer, unassigned) [Compound 107]"
experimental_value = "6.00 to 7.00"


Ask: Return the recorded pIC50 value; entry: COc1cc(C)[nH]c(=O)c1CNC(=O)c1c(C)c(C(C)C2CCN(C(=O)C(C)(F)F)CC2)n2ncccc12 (stereo not drawn)
Result: 5.00 to 6.00

Ask: Please list pIC50 recorded for the compound COc1cc(C)[nH]c(=O)c1CNC(=O)c1c(C)c(C(C)N(C)S(C)(=O)=O)n2ncccc12 (racemic)
Result: 6.00 to 7.00

Ask: Read the entry COc1cc(C)[nH]c(=O)c1CNC(=O)c1c(C)c(C(C)c2ccccc2)n2ncccc12 (single isomer, unassigned) [Compound 105] and write its reported pIC50.
Result: > 7.00

---

Here, each record is paired with measured IC50 data.
- TESTED_SYSTEM: Y641N EZH2 (Homo sapiens, UniProt Q15910, Y641N)
- ASSAY_PROTOCOL: Assay for Y641N EZH2 (as the EZH2 assay, H3K27Me2 oligonucleosomes as substrate)
- REPORTED_CONDITIONS: Y641N EZH2 mutant, reconstituted H3K27Me2 oligonucleosomes as substrate

Example cases with answers are listed next.
[[record]]
compound = "COc1cc(C)[nH]c(=O)c1CNC(=O)c1c(C)c(C(C)=O)n2ncccc12"
observable = "IC50"
experimental_value = "> 10000 nM"

[[record]]
compound = "COc1cc(C)[nH]c(=O)c1CNC(=O)c1c(C)c(C(C)c2cccnc2)n2ncccc12 (racemic)"
observable = "IC50"
experimental_value = "< 100 nM"

[[record]]
compound = "COc1cc(C)[nH]c(=O)c1CNC(=O)c1c(Cl)c(C(C)C2CCN(CC(C)(C)O)CC2)n2ncccc12 (stereo not shown)"
observable = "IC50"
experimental_value = "< 100 nM"

[[record]]
compound = "COc1cc(C)[nH]c(=O)c1CNC(=O)c1c(C)c(C(C)c2ccccc2)n2ncccc12 (racemic) [Compound 101]"
observable = "IC50"
experimental_value = "< 100 nM"

[[record]]
compound = "COc1cc(C)[nH]c(=O)c1CNC(=O)c1c(C)c(C(C)NS(C)(=O)=O)n2ncccc12 (racemic)"
observable = "IC50"
experimental_value = "100 to 1000 nM"

[[record]]
compound = "COc1cc(C)[nH]c(=O)c1CNC(=O)c1c(C)c(C(C)C2CC2)n2ncccc12 (racemic)"
observable = "IC50"
experimental_value = "< 100 nM"


Ask: Fill in IC50 for COc1cc(C)[nH]c(=O)c1CNC(=O)c1c(C)c(-c2c(C)noc2C)n2ncccc12 tested with Y641N EZH2 (Homo sapiens, UniProt Q15910, Y641N).
Result: < 100 nM

---

- System: H3K27me3 mark in Hela cells expressing wild type EZH2
- ASSAY_PROTOCOL: H3K27me3 MSD Hela Assay
- Type: cell-based
- REPORTED_CONDITIONS: Homo sapiens, HeLa, 96 h, read-out: H3K27me3_MSD_HeLa (EC50)
Each entry below lists one item and its recorded EC50 value.

[[record]]
compound = "COc1cc(C)[nH]c(=O)c1CNC(=O)c1c(C)c(C(C)C2CC2)n2ncccc12 (racemic)"
experimental_value = "400 to 2000 nM"


Ask: Return value of EC50 for input COc1cc(C)[nH]c(=O)c1CNC(=O)c1c(C)c(C(C)c2ccccc2)n2ncccc12 (single isomer, unassigned) [Compound 105] , no commentary.
Result: < 400 nM

Ask: Report measured EC50; entry is COc1cc(C)[nH]c(=O)c1CNC(=O)c1c(C)c(C(C)C2CCOCC2)n2ncccc12 (racemic)
Result: < 400 nM

Ask: Entry COc1cc(C)[nH]c(=O)c1CNC(=O)c1c(C)c(C(C)c2cccnc2)n2ncccc12 (racemic) needs its EC50 filled in; supply it.
Result: < 400 nM

Ask: Identify measured EC50 corresponding to COc1cc(C)[nH]c(=O)c1CNC(=O)c1c(C)c(C(C)c2ccn(C)c(=O)c2)n2ncccc12 (centres unmarked)
Result: 2000 to 10000 nM

---

Entries and their EC50
- Test system: H3K27me3 mark in Hela cells expressing wild type EZH2
- ASSAY_PROTOCOL: H3K27me3 MSD Hela Assay
- Format: cell-based
- REPORTED_CONDITIONS: Homo sapiens, HeLa, 96 h, read-out: H3K27me3_MSD_HeLa (EC50)

[[record]]
molecule = "COc1cc(C)[nH]c(=O)c1CNC(=O)c1c(C)c(C(C)N(C)S(C)(=O)=O)n2ncccc12 (racemic)"
observable = "EC50"
experimental_value = "400 to 2000 nM"

[[record]]
molecule = "COc1cc(C)[nH]c(=O)c1CNC(=O)c1c(C)c(C(C)NS(C)(=O)=O)n2ncccc12 (racemic)"
observable = "EC50"
experimental_value = "2000 to 10000 nM"

[[record]]
molecule = "COc1cc(C)[nH]c(=O)c1CNC(=O)c1c(C)c(C(C)c2ccccc2)n2ncccc12 (racemic) [Compound 101]"
observable = "EC50"
experimental_value = "< 400 nM"


// below: EC50 requested for another molecule
Ask: Provide one value: measured EC50 of COc1cc(C)[nH]c(=O)c1CNC(=O)c1c(C)c(-c2c(C)noc2C)n2ncccc12
Result: < 400 nM

Reference for the values: patent US9745305B2
